tested on: 596521-263-R-J1-PDC complex spheroids, viability % of control; experiment: Anticancer human tumor 596521-263-R-J1-PDC patient-derived soft tissue sarcoma cell line growth inhibition [GQUAD]; conditions: second compound 10 µM; first compound 10 µM; hits give low values
endpoint_label: viability, T/C (%)

molecule	system_name	endpoint_label	measured_value
O=C(c1cc(Cc2n[nH]c(=O)c3ccccc23)ccc1F)N1CCN(C(=O)C2CC2)CC1 + Cc1cnc(CNC(=O)c2c(=O)c3ccc(N4CCCN(C)CC4)nc3n3c2sc2ccccc23)cn1	596521-263-R-J1-PDC complex spheroids, viability % of control	viability, T/C	41.8
O=C(NO)c1cnc(N2CCN(S(=O)(=O)c3ccc4ccccc4c3)CC2)nc1 + Cc1cnc(CNC(=O)c2c(=O)c3ccc(N4CCCN(C)CC4)nc3n3c2sc2ccccc23)cn1	596521-263-R-J1-PDC complex spheroids, viability % of control	viability, T/C	0.27
CC1COCCN1c1cc(C2(O)CC3CCC(C2)O3)c2cnn(-c3ccn[nH]3)c2n1 (stereo not given) + CN(C)c1ccc(Nc2c3ccc(NC(=O)CCN4CCCC4)cc3nc3cc(NC(=O)CCN4CCCC4)ccc23)cc1	596521-263-R-J1-PDC complex spheroids, viability % of control	viability, T/C	14.8
CC1COCCN1c1cc(C2(S(C)(=N)=O)CC2)nc(-c2ccnc3[nH]ccc23)n1 (stereo not given) + CN(C)c1ccc(Nc2c3ccc(NC(=O)CCN4CCCC4)cc3nc3cc(NC(=O)CCN4CCCC4)ccc23)cc1	596521-263-R-J1-PDC complex spheroids, viability % of control	viability, T/C	44.9
CC(=O)O[C@H]1C(=O)[C@@]2(C)[C@H]([C@H](OC(=O)c3ccccc3)[C@]3(O)C[C@H](OC(=O)[C@H](O)[C@@H](NC(=O)c4ccccc4)c4ccccc4)C(C)=C1C3(C)C)[C@]1(OC(C)=O)CO[C@@H]1C[C@@H]2O + Cc1cnc(CNC(=O)c2c(=O)c3ccc(N4CCCN(C)CC4)nc3n3c2sc2ccccc23)cn1	596521-263-R-J1-PDC complex spheroids, viability % of control	viability, T/C	0.22

----------
system: 596521-263-R-J1-PDC complex spheroids, viability % of control; assay: Anticancer human tumor 596521-263-R-J1-PDC cell line growth inhibition [GQUAD]; settings: second compound 1 µM; first compound 1 µM; hits give low values;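 note: spheroids exposed to drugs for 7 days before viability reading; 100% = DMSO vehicle control viability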
We begin with a simple list: items and their reported viability, T/C.
endpoint_label: viability, T/C

compound	endpoint_label	measured_value
CCCS(=O)(=O)Nc1ccc(F)c(C(=O)c2c[nH]c3ncc(-c4ccc(Cl)cc4)cc23)c1F + Cc1cnc(CNC(=O)c2c(=O)c3ccc(N4CCCN(C)CC4)nc3n3c2sc2ccccc23)cn1	viability, T/C	61.5%
Cc1cccc(N(C)C(=O)C2C(O)CCN2c2nc(C)cc(C(F)(F)F)c2C#N)c1 (stereo unspecified) + Cc1cnc(CNC(=O)c2c(=O)c3ccc(N4CCCN(C)CC4)nc3n3c2sc2ccccc23)cn1	viability, T/C	64.7%
O=c1[nH]cc(F)c(=O)[nH]1 + Cc1[nH]c2ccc(F)cc2c1-c1nc2c3cccnc3c3ncccc3c2[nH]1	viability, T/C	88.9%
CC(C)n1c(=O)n(C)c2cnc3cc(F)c(-c4ccc(OCCCN5CCCCC5)nc4)cc3c21 + Cc1[nH]c2ccc(F)cc2c1-c1nc2c3cccnc3c3ncccc3c2[nH]1	viability, T/C	89.4%
CC1COCCN1c1cc(C2(O)CC3CCC(C2)O3)c2cnn(-c3ccn[nH]3)c2n1 (stereo unspecified) + Cc1[nH]c2ccc(F)cc2c1-c1nc2c3cccnc3c3ncccc3c2[nH]1	viability, T/C	33.8%
CC1COCCN1c1cc(C2(S(C)(=N)=O)CC2)nc(-c2ccnc3[nH]ccc23)n1 (stereo unspecified) + CN(C)c1ccc(Nc2c3ccc(NC(=O)CCN4CCCC4)cc3nc3cc(NC(=O)CCN4CCCC4)ccc23)cc1	viability, T/C	76.4%

----------
Reported viability, T/C by item:
tested on: 596521-263-R-J1-PDC complex spheroids, viability % of control; experiment: Anticancer human tumor 596521-263-R-J1-PDC cell line growth inhibition [GQUAD]; conditions: second compound 1 µM; first compound 1 µM; hits give low values;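 note: spheroids exposed to drugs for 7 days before viability reading; 100% = DMSO vehicle control viability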

compound	viability, T/C / %
O=C(c1cc(Cc2n[nH]c(=O)c3ccccc23)ccc1F)N1CCN(C(=O)C2CC2)CC1 + Cc1cnc(CNC(=O)c2c(=O)c3ccc(N4CCCN(C)CC4)nc3n3c2sc2ccccc23)cn1	64.3
COc1cc(C2c3cc4c(cc3C(OC3OC5COC(C)OC5C(O)C3O)C3COC(=O)C23)OCO4)cc(OC)c1O (stereo unspecified) + Cc1[nH]c2ccc(F)cc2c1-c1nc2c3cccnc3c3ncccc3c2[nH]1	60.9
CC1COCCN1c1cc(-c2ccnn2C)c2ccnc(-c3ccn[nH]3)c2n1 (stereo unspecified) + CN(C)c1ccc(Nc2c3ccc(NC(=O)CCN4CCCC4)cc3nc3cc(NC(=O)CCN4CCCC4)ccc23)cc1	45.4
O=c1[nH]cc(F)c(=O)[nH]1 + Cc1cnc(CNC(=O)c2c(=O)c3ccc(N4CCCN(C)CC4)nc3n3c2sc2ccccc23)cn1	72.2
C=CCn1c(=O)c2cnc(Nc3ccc(N4CCN(C)CC4)cc3)nc2n1-c1cccc(C(C)(C)O)n1 + CN(C)c1ccc(Nc2c3ccc(NC(=O)CCN4CCCC4)cc3nc3cc(NC(=O)CCN4CCCC4)ccc23)cc1	47
COc1cccc2c1C(=O)c1c(O)c3c(c(O)c1C2=O)CC(O)(C(=O)CO)CC3OC1CC(N)C(O)C(C)O1 (stereo unspecified) + Cc1cnc(CNC(=O)c2c(=O)c3ccc(N4CCCN(C)CC4)nc3n3c2sc2ccccc23)cn1	47.2
C=CC(=O)N1CCN(c2nc(=O)n(-c3c(C)ccnc3C(C)C)c3nc(-c4c(O)cccc4F)c(F)cc23)C(C)C1 (stereo unspecified) + Cc1[nH]c2ccc(F)cc2c1-c1nc2c3cccnc3c3ncccc3c2[nH]1	97.5
COc1ncnc(C2CC2)c1-c1ncc2cnn(Cc3ccc(-c4nc(C(F)(F)F)cn4C(C)C)cc3)c2n1 + Cc1[nH]c2ccc(F)cc2c1-c1nc2c3cccnc3c3ncccc3c2[nH]1	49.9
COc1cc(C2c3cc4c(cc3C(OC3OC5COC(C)OC5C(O)C3O)C3COC(=O)C23)OCO4)cc(OC)c1O (stereo unspecified) + Cc1cnc(CNC(=O)c2c(=O)c3ccc(N4CCCN(C)CC4)nc3n3c2sc2ccccc23)cn1	52.2
CC(C)n1c(=O)n(C)c2cnc3cc(F)c(-c4ccc(OCCCN5CCCCC5)nc4)cc3c21 + Cc1cnc(CNC(=O)c2c(=O)c3ccc(N4CCCN(C)CC4)nc3n3c2sc2ccccc23)cn1	54.3
C#Cc1c(F)ccc2cc(O)cc(-c3ncc4c(N5CC6CCC(C5)N6)nc(OCC56CCCN5CC(F)C6)nc4c3F)c12 (stereo unspecified) + CN(C)c1ccc(Nc2c3ccc(NC(=O)CCN4CCCC4)cc3nc3cc(NC(=O)CCN4CCCC4)ccc23)cc1	88.6

----------
test system: 596521-263-R-J1-PDC complex spheroids, viability % of control; assay: Anticancer human tumor 596521-263-R-J1-PDC cell line growth inhibition [GQUAD]; conditions: second compound 0.316 µM; first compound 3.16 µM; hits give low values;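 note: spheroids exposed to drugs for 7 days before viability reading; 100% = DMSO vehicle control viability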
endpoint_label: viability, T/C (%)

molecule	unit_name	measured_value
CC(C)(O)C1CCC(Nc2ccc3ncc(-c4cccc(C(F)(F)F)c4)n3n2)CC1 (stereo not drawn) + Cc1cnc(CNC(=O)c2c(=O)c3ccc(N4CCCN(C)CC4)nc3n3c2sc2ccccc23)cn1	%	18.4
CC(C)n1c(=O)n(C)c2cnc3cc(F)c(-c4ccc(OCCCN5CCCCC5)nc4)cc3c21 + Cc1[nH]c2ccc(F)cc2c1-c1nc2c3cccnc3c3ncccc3c2[nH]1	%	81.9
O=c1[nH]cc(F)c(=O)[nH]1 + CN(C)c1ccc(Nc2c3ccc(NC(=O)CCN4CCCC4)cc3nc3cc(NC(=O)CCN4CCCC4)ccc23)cc1	%	95.4

----------
Here the recorded viability, T/C is given for each entry.
tested on: 596521-263-R-J1-PDC complex spheroids, viability % of control; assay: Anticancer human tumor 596521-263-R-J1-PDC cell line growth inhibition [GQUAD]; settings: second compound 1 µM; first compound 1 µM; hits give low values;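 note: spheroids exposed to drugs for 7 days before viability reading; 100% = DMSO vehicle control viability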

molecule	viability, T/C (%)
CC1COCCN1c1cc(C2(S(C)(=N)=O)CC2)nc(-c2ccnc3[nH]ccc23)n1 (stereo not drawn) + Cc1cnc(CNC(=O)c2c(=O)c3ccc(N4CCCN(C)CC4)nc3n3c2sc2ccccc23)cn1	56.8
O=C(NO)c1cnc(N2CCN(S(=O)(=O)c3ccc4ccccc4c3)CC2)nc1 + Cc1[nH]c2ccc(F)cc2c1-c1nc2c3cccnc3c3ncccc3c2[nH]1	25.8
Nc1ccn(C2OC(CO)C(O)C2(F)F)c(=O)n1 (stereo not drawn) + Cc1cnc(CNC(=O)c2c(=O)c3ccc(N4CCCN(C)CC4)nc3n3c2sc2ccccc23)cn1	47.6
